// data source = paper doi:10.1101/2020.01.06.895540v1

- assayed system: hOR5R1 (Homo sapiens)
- Sequence (Q8NH85 whole entry): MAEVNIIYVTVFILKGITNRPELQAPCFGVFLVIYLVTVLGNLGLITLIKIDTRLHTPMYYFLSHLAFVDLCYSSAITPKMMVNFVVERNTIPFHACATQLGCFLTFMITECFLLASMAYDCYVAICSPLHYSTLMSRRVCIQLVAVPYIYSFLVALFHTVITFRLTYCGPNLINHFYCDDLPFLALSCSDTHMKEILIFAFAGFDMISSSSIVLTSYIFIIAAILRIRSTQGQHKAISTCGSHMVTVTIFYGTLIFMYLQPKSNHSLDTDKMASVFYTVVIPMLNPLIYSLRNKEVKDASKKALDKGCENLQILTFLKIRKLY
- run description: cell-based
measured quantity: EC50 (µM)

C=C(C)[C@@H]1CC=C(C)C(=O)C1 [R-carvone]
12

[I] O=C1CCOc2ccccc21 [4-chromanone]
[II] O=c1ccc2ccccc2o1 [coumarin]
[III] CC(=O)c1ccccc1 [acetophenone]
Prompt: Put the items in order so that reported EC50 rises from first to last. Give the order by naming the labels one after another as requested.
Completion: III, II, I

----------
- assayed system: hOR8K5 (Homo sapiens, UniProt Q8NH50)
- Sequence (Q8NH50 whole entry): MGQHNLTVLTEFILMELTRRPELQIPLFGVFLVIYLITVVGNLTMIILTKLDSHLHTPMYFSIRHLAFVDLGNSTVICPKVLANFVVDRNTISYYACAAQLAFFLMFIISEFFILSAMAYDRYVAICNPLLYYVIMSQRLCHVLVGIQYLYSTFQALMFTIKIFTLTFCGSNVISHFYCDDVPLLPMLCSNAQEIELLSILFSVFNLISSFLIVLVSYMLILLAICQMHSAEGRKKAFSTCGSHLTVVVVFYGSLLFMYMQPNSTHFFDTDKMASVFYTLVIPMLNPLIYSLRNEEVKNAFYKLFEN
- run description: cell-based
pEC50: −log10 of the molar value.
pEC50 reference

Prompt: # lookup: pEC50 of C=C(C)[C@@H]1CC=C(C)C(=O)C1
Completion: 5.35

Prompt: // pEC50 lookup, key: O=c1ccc2ccccc2o1
Completion: < 3.00

Prompt: What does the data say about its pEC50? Entry: CC(=O)c1ccccc1
Completion: < 3.00

Prompt: Consider the compound O=C1CCOc2ccccc21 and give its measured pEC50.
Completion: < 3.00

----------
- assayed system: UniProtKB Q96RD0
- Sequence (Q96RD0 1-313): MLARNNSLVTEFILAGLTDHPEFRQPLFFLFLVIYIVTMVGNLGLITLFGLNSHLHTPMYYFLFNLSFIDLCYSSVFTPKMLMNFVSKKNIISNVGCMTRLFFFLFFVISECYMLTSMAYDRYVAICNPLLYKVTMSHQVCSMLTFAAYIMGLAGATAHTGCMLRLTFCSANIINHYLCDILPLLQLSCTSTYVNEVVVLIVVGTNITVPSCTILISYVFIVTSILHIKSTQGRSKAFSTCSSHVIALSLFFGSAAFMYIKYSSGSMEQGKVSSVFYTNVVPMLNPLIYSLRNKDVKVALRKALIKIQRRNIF
- run description: cell-based
- Design: species or system Hana3A
pEC50: −log10 of the molar value.
Parameter: pEC50. Scope: all listed entries.

Recorded pEC50, per entry:
CC(=O)c1ccccc1 [acetophenone]
< 3.00
O=C1CCOc2ccccc21 [4-chromanone]
4.82
O=c1ccc2ccccc2o1 [coumarin]
< 3.00

Turning now to a further record.
Prompt: pEC50 lookup needed for C=C(C)[C@@H]1CC=C(C)C(=O)C1 [R-carvone] , thanks.
Completion: < 3.00

----------
- assayed system: UniProt B2RN74
- Sequence (B2RN74 whole entry): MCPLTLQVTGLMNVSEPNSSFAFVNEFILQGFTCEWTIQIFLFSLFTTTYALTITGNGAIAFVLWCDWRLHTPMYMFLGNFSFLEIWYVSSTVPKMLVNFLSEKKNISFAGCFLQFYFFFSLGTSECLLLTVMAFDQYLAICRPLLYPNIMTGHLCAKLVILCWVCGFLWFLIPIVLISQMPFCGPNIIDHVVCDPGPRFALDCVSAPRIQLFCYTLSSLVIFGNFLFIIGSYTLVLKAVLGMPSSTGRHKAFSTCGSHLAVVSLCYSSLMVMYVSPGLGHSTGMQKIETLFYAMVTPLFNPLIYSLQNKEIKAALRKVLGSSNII
- run description: cell-based
measured quantity: EC50 (µM)

[a] CC(=O)c1ccccc1 [acetophenone]
[b] O=c1ccc2ccccc2o1 [coumarin]
[c] C=C(C)[C@@H]1CC=C(C)C(=O)C1 [R-carvone]
Prompt: Sort ascending by EC50: all records listed above. Answer format: list of labels, ordered as asked.
Completion: a, c, b
